- Target under test: (NPNA)3 (Plasmodium falciparum)
- Assay explanation: SPR, antibody on chip
Recorded metric: pKd
FYI, pKd means -log10 of a concentration in mol per litre.

Use the examples below as a reference point.
| Binder | pKd |
| --- | --- |
| AB-007034 (antibody, V domains shown) VH: QVQLVESGGGVVQPGRSLRLSCAASGFTFSTYAMHWVRQAPGQGLEWVAVISYHSTNKYYADSVRGRFTISRDNSKNTLYLQMNSLRAEDTAVYYCARDGYSSSFFDFWGQGTLVTVSS VL: DIQMTQSPSTLSASVGDRVTITCRASQSISRWLAWYQQQPGKAPKLLISGASVLESGVPSRFSGSGSGTEFTLTISSLQPDDFATYYCQHYNSYFVTFGQGTKVEIK | 7.77 |
| AB-007064 (antibody, V domains shown) VH: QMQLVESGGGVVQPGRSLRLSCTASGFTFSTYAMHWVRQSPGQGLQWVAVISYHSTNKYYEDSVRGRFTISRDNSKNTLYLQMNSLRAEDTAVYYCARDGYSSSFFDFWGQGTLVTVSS VL: DIQMTQSPSTLSASVGDRVAITCRASQSISRWLAWYQQQPGKAPKLLMTGASVLESGVPSRFSGSGSGTEFTLTISSLQPDDFATYYCQHYNSYFVTFGQGTKVEIK | 6.82 |

--- query ---
QUERY: Entry AB-007055 (antibody, V domains shown) VH: QMQLVESGGGVVQPGRSLRLSCTASGFTFSTYAMHWVRQSPGQGLQWVAVISYHSTNKYYEDSVRGRFTISRDNSKNTLYLQMNSLRAEDTAVYYCARDGYTSSFFDFWGQGTLVTVSS VL: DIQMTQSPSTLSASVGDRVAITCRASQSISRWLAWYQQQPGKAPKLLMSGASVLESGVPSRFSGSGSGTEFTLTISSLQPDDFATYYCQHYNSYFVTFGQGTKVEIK : reported pKd = ?
RESULT: 5.83
